Hey, just so you know, these numbers are from the supplement of paper PMC10567573.

What protein stability index was measured for each of the following?
B1: TMEM40 (parent)
chain: YGETDFHKQDGKAGLFSQEQYERN

Variants of: B1
Assay: protein stability index of a GFP-peptide fusion (GPS, HEK-293T) (PSI 1-6); higher = more stable;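 also: lentivirally expressed fusions sorted by FACS into six bins by GFP to DsRed ratio, PSI derived from sequencing read proportions per bin multiplied by bin number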
Conditions: c terminus: a fixed tail appended

Kindly note the recorded protein stability index for H7N , which is 4.91

Please fill in: protein stability index reported for A13H = 4.21

Looking up H7Y , I see its protein stability index listed as 2.17

Lab note: Q18L gave protein stability index of 3.81

Q18M has a reported protein stability index of 3.23

Record summary for T4E : reported protein stability index = 4.83

Entry E19Y — recorded protein stability index = 3.15

Recorded protein stability index (variant T4M ): 3.67

Just so you know, measured protein stability index for K12D came out at 4.86

The reported protein stability index of the variant Y1G was 4.5

Measured protein stability index, A13P : 3.54

The variant listed as Q9P has a reported protein stability index of 3.56

Measured protein stability index of D5A : 2.92

For this variant ( G2K ), measured protein stability index is 4.68

Lab note: measured protein stability index of Y21K was 4.54

Looking up L15A , I found its protein stability index recorded as 4.39

Memo: Q9V , reported protein stability index: 3.6

Reported protein stability index of Y1A : 4.89

Value of measured protein stability index for the entry T4H : 4.13

Measured protein stability index, N24K : 4.6

For reference, reported protein stability index for D5R stands at 3.38

response.value for L15W (field: protein stability index) = 3.8

Form field protein stability index, entry T4G : 4.61

According to the records, this variant G2D displays protein stability index of 4.95

Reported protein stability index ( E3R ) = 3.85

Consider H7Q . Its measured protein stability index is 4.32

Looking up E3Y , I found its protein stability index recorded as 3.79

Noted for T4K : its protein stability index reads 3.59

Data point: R23Q ; protein stability index = 4.3

get_value(item= E19G , readout=protein stability index) returns 3.66

The measured protein stability index associated with S17D reads 3.98

For this variant ( K8I ), measured protein stability index is 3.89

Documented protein stability index of E22K : 3.67

Given item Q20M , the value recorded as its protein stability index is 3.92

Please fill in: protein stability index reported for G2L = 4.46

Lookup result for D5T ; measured protein stability index: 2.99

Notebook: Y21T , protein stability index read as 5.02

Query Q9H yields protein stability index of 3.75

Summary for this variant, E19S : protein stability index is 3.6

The variant identified as K8A registered its protein stability index at 4.53

Sure, the documented protein stability index for G11N is 4.32

Lab note: G11S gave protein stability index of 4.55

Given item R23W , the value recorded as its protein stability index is 4.13

// G2F : protein stability index value = 4.61

protein stability index for F16I is 4.58

For record S17H the listed protein stability index is 3.54

The recorded protein stability index for Y21S is 4.63

Item: R23K | protein stability index: 4.37

Entry A13L — recorded protein stability index = 4.07

Item: E22C | protein stability index: 3.61

Given item K12I , the value recorded as its protein stability index is 3.93

Recorded protein stability index (variant Q18D ): 4.5

The recorded protein stability index for entry E22M equals 3.64

The measured protein stability index associated with Q9R reads 4.13

The reported value for A13V in terms of protein stability index is 4.27

Notebook: G14S , protein stability index read as 4.68

// sample E22V , its protein stability index was 3.76

Measured protein stability index of L15Q : 4.51

variant G2W , protein stability index observed: 3.62

Recorded protein stability index (variant E3F ): 3.57

Please fill in: protein stability index reported for Y21G = 4.8

Please fill in: protein stability index reported for Q18P = 2.05

Reported protein stability index for K12Y was 3.99

Lookup result for G11T ; measured protein stability index: 3.68

Documented protein stability index of E3D : 3.09

Looking up D10G , I see its protein stability index listed as 3.24

In plain terms, L15M has a documented protein stability index of 4.27

The variant listed as Y1D has a reported protein stability index of 4.92

The variant listed as N24H shows protein stability index equal to 3.88

For reference, reported protein stability index for D10F stands at 2.26

Please fill in: protein stability index reported for R23V = 3.67

Just so you know, measured protein stability index for H7R came out at 4.08

Record G14Y . Reported protein stability index: 3.74

Quick note, protein stability index for Q9S landed at 4.33

protein stability index measured on Q18K = 4.55

Form: variant = A13W ; protein stability index = 3.87

Consider E19T . Its measured protein stability index is 3.73

// field: protein stability index; key: Q18N ; value = 3.66

The variant listed as E19C shows protein stability index equal to 3.48

What the record says about G11P : protein stability index is 3.46

# variant Q9F ; its protein stability index = 3.38

protein stability index for E19V is 3.22

Given item G11C , the value recorded as its protein stability index is 3.77

Consider G14T . Its measured protein stability index is 4.06

Form field protein stability index, entry D5P : 4.14

Per the records, this variant ( E3K ) has protein stability index equal to 3.55

Sample G2N ; protein stability index observed: 4.78

For record K8L the listed protein stability index is 4.29

Value of protein stability index reported for the variant Y1W is 4.37

Consider F6V . Its measured protein stability index is 5.09

Sample T4L ; protein stability index observed: 3.69
